# systemTested: human HPK1 (MAP4K1) (Homo sapiens (Human))
# measurementDescription: HPK1 IC50 Assay (TR-FRET peptide phosphorylation)
# Type: biochemical
# recordedConditions: recombinant HPK1 kinase domain 0.15 nM, 10 μM ATP, 1 μM STK S1 peptide; geometric mean of multiple experiments
IC50 under 0.1 nM gets Met, anything at or over 0.1 nM gets Not met.

- compound: "CC[C@@H](C)NC(=O)c1cc(Nc2nc(-c3ccc4c(c3)N([C@H]3C[C@@H](N5CCCCC5)C3)C(=O)C43CCN(C(C)=O)CC3)cc3ncn(C(C)C)c23)c(F)cc1C"
  discreteLabel: "Not met"
- compound: "Cc1ccc(Nc2nc(-c3ccc4c(c3)N([C@H]3C[C@@](C)(N5CCCCC5)C3)C(=O)C4(C)C)cc3ncn(C4CC4)c23)cc1C(N)=O"
  discreteLabel: "Met"
- compound: "CNC(=O)c1cc(Nc2nc(-c3ccc4c(c3)N([C@H]3C[C@@H](N5CCCCC5)C3)C(=O)C4(C)C)cc3ncn(C(C)C)c23)c(F)cc1F"
  discreteLabel: "Not met"
- compound: "CNC(=O)c1cc(Nc2nc(-c3ccc4c(c3)N([C@H]3C[C@@H](N5CCCC(C(F)F)C5)C3)C(=O)C4(C)C)cc3ncn(C(C)C)c23)ccc1C (stereo partly drawn)"
  discreteLabel: "Not met"
- compound: "CNC(=O)c1cc(Nc2nc(-c3ccc4c(c3)N([C@H]3C[C@@H](N5CCCCC5)C3)C(=O)C4(C)C)cc3ncn(C(C)C)c23)ccc1C(F)(F)F"
  discreteLabel: "Met"
- compound: "CCNC(=O)c1cc(Nc2nc(-c3cnc4c(c3)N([C@H]3C[C@@](C)(N5CCCCC5)C3)C(=O)C4(C)C)cc3ncn(C(C)C)c23)c(F)c(F)c1C"
  discreteLabel: "Met"

---

# systemTested: human HPK1 (MAP4K1) (Homo sapiens (Human), UniProt Q92918)
# Sequence (Q92918 17-274): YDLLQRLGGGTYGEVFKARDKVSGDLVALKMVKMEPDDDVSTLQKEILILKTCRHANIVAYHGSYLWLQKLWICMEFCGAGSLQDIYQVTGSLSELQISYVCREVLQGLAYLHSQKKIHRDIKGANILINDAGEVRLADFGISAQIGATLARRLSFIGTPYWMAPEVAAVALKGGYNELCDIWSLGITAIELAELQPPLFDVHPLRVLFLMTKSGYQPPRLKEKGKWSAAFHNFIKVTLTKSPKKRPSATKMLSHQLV
# measurementDescription: HPK1 IC50 Assay (TR-FRET peptide phosphorylation)
# Assay type: biochemical
# recordedConditions: recombinant HPK1 kinase domain 0.15 nM, 10 μM ATP, 1 μM STK S1 peptide; geometric mean of multiple experiments
pIC50: −log10 of the molar value.
Criterion: pIC50 meeting or surpassing 10. Met: Yes. Not met: No.

- molecule: "CC(C)NC(=O)c1cc(Nc2nc(-c3cnc4c(c3)N([C@H]3C[C@@](C)(N5CCC6CC6C5)C3)C(=O)C4(C)C)cc3ncn(C(C)C)c23)c(F)c(F)c1Cl (stereo partly drawn) [Example 254]"
  discreteLabel: "Yes"
- molecule: "CNC(=O)c1cc(Nc2nc(-c3ccc4c(c3)N([C@H]3C[C@@H](N5CC6C(C5)C6(F)F)C3)C(=O)C4(C)C)cc3ncn(C(C)C)c23)ccc1C (stereo partly drawn) [Example 7]"
  discreteLabel: "No"

---

# systemTested: UniProtKB Q92918
# measurementDescription: HPK1 IC50 Assay (TR-FRET peptide phosphorylation)
# Type: biochemical
# recordedConditions: recombinant HPK1 kinase domain 0.15 nM, 10 μM ATP, 1 μM STK S1 peptide; geometric mean of multiple experiments
Each entry below carries its recorded IC50.

- compound: "CNC(=O)c1cc(Nc2nc(-c3ccc4c(c3)N([C@H]3C[C@@H](N5CCCCC5)C3)C(=O)C43CCN(C(C)=O)CC3)cc3ncn(C4CC4)c23)ccc1Cl [Example 47]"
  IC50, nM: 0.2
- compound: "Cc1cc(F)c(Nc2nc(-c3ccc4c(c3)N([C@H]3C[C@@H](N5CCCCC5)C3)C(=O)C4(C)C)cc3ncn(C(C)C)c23)cc1C(=O)NC1(C(F)F)CC1 [Example 65]"
  IC50, nM: 0.1
- compound: "Cc1cc(F)c(Nc2nc(-c3cnc4c(c3)N([C@H]3C[C@@](C)(N5CCCCC5)C3)C(=O)C4(C)C)cc3ncn(C(C)C)c23)cc1C(=O)NC1(C(F)F)CC1 [Example 216]"
  IC50, nM: 0.1

---

Each entry below lists one item and its recorded IC50 value.
# systemTested: human HPK1 (MAP4K1) (Homo sapiens (Human))
# measurementDescription: HPK1 IC50 Assay (TR-FRET peptide phosphorylation)
# Format: biochemical
# recordedConditions: recombinant HPK1 kinase domain 0.15 nM, 10 μM ATP, 1 μM STK S1 peptide; geometric mean of multiple experiments
property: IC50 (nM)

- compound: "Cc1ccc(Nc2nc(-c3ccc4c(c3)N([C@H]3C[C@@H](NC(=O)C(C)(C)C)C3)C(=O)C4(C)C)cc3ncn(C(C)C)c23)cc1C(N)=O [Example 135]"
  displayUnit: "nM"
  numericResult: 0.6
- compound: "Cc1ccc(Nc2nc(-c3ccc4c(c3)N([C@H]3C[C@@H](N5CCCCC5)C3)C(=O)C4(C)C)cc3ncn(C4CC4)c23)cc1C(N)=O [Example 112]"
  displayUnit: "nM"
  numericResult: 0.09
- compound: "Cc1c(C(=O)NC2(C(F)F)CC2)cc(Nc2nc(-c3cnc4c(c3)N([C@H]3C[C@@](C)(N5CCOC(C)(C)C5)C3)C(=O)C4(C)C)cc3ncn(C(C)C)c23)c(F)c1F [Example 188]"
  displayUnit: "nM"
  numericResult: 0.4
- compound: "Cc1c(F)c(Nc2nc(-c3cnc4c(c3)N([C@H]3C[C@@](C)(N5CCCCC5)C3)C(=O)C4(C)C)cc3ncn(C(C)C)c23)cc(C(=O)NC2(C(F)F)CC2)c1Cl [Example 264]"
  displayUnit: "nM"
  numericResult: 0.2
- compound: "COCCNC(=O)c1cc(Nc2nc(-c3ccc4c(c3)N([C@H]3C[C@@H](N5CCCCC5)C3)C(=O)C4(C)C)cc3ncn(C(C)C)c23)c(F)cc1C [Example 116]"
  displayUnit: "nM"
  numericResult: 0.2

---

Listing of recorded pIC50 by entry.
# systemTested: human HPK1 (MAP4K1) (Homo sapiens (Human))
# measurementDescription: HPK1 IC50 Assay (TR-FRET peptide phosphorylation)
# Type: biochemical
# recordedConditions: recombinant HPK1 kinase domain 0.15 nM, 10 μM ATP, 1 μM STK S1 peptide; geometric mean of multiple experiments
pIC50: −log10 of the molar value.
property: pIC50

- molecule: "CC[C@H](C)n1cnc2cc(-c3ccc4c(c3)N([C@H]3C[C@@H](N5CCCCC5)C3)C(=O)C43CCN(C(C)=O)CC3)nc(Nc3ccc(C)c(C(=O)NC)c3)c21"
  property: "pIC50"
  numericResult: 10.00
- molecule: "CNC(=O)c1cc(Nc2nc(-c3ccc4c(c3)N([C@H]3C[C@@H](N5CCCCC5)C3)C(=O)C43CCN(C(=O)C45CC(O)(C4)C5)CC3)cc3ncn(C(C)C)c23)ccc1C"
  property: "pIC50"
  numericResult: 9.70
- molecule: "CNC(=O)c1cc(Nc2nc(-c3ccc4c(c3)N([C@H]3C[C@@H](N5C6COCC5C6)C3)C(=O)C4(C)C)cc3ncn(C(C)C)c23)c(F)cc1C"
  property: "pIC50"
  numericResult: 10.00
- molecule: "Cc1c(C(=O)NC2(C(F)F)CC2)cc(Nc2nc(-c3ccc4c(c3)N([C@H]3C[C@@H](N5C[C@H]6CC[C@@H]5C6)C3)C(=O)C4(C)C)cc3ncn(C(C)C)c23)c(F)c1F"
  property: "pIC50"
  numericResult: 10.15
- molecule: "CNC(=O)c1cc(Nc2nc(-c3ccc4c(c3)N([C@H]3C[C@@H](N5CCC(C(F)F)C5)C3)C(=O)C4(C)C)cc3ncn(C(C)C)c23)ccc1C (stereo partly drawn)"
  property: "pIC50"
  numericResult: 9.70
- molecule: "CC(C)n1cnc2cc(-c3cnc4c(c3)N([C@H]3C[C@@](C)(N5CCCCCC5)C3)C(=O)C4(C)C)nc(Nc3cc(C(=O)NC4(CF)CC4)c(Cl)c(F)c3F)c21"
  property: "pIC50"
  numericResult: 10.40
- molecule: "Cc1cc(F)c(Nc2nc(-c3ccc4c(c3)N([C@H]3C[C@@](C)(N5CCCCC5)C3)C(=O)C4(C)C)cc3ncn(C(C)C)c23)cc1C(=O)NC1(C(F)F)CC1"
  property: "pIC50"
  numericResult: 10.00
- molecule: "CC(C)n1cnc2cc(-c3cnc4c(c3)N([C@H]3C[C@@](C)(N5CC6CCC6C5)C3)C(=O)C4(C)C)nc(Nc3cc(C(=O)NC4(C(F)F)CC4)c(Cl)c(F)c3F)c21 (stereo partly drawn)"
  property: "pIC50"
  numericResult: 10.00
- molecule: "CC(C)n1cnc2cc(-c3cnc4c(c3)N([C@H]3C[C@@](C)(N5CCCCC5)C3)C(=O)C4(C)C)nc(Nc3cc(C(=O)NC4(C(F)F)CC4)c(Cl)cc3F)c21"
  property: "pIC50"
  numericResult: 10.00
- molecule: "Cc1ccc(Nc2nc(-c3ccc4c(c3)N([C@H]3C[C@@H](N5CCCCC5)C3)C(=O)C43CCOCC3)cc3ncn(C(C)C)c23)cc1C(=O)NC1CCC1"
  property: "pIC50"
  numericResult: 9.70
- molecule: "CC(=O)N1CCC2(CC1)C(=O)N([C@H]1C[C@@H](N3CCCCC3)C1)c1cc(-c3cc4ncn(C(C)C)c4c(Nc4cc(C(=O)NC(C)C)c(F)cc4F)n3)ccc12"
  property: "pIC50"
  numericResult: 9.70
- molecule: "Cc1c(C(=O)NC2(C(F)F)CC2)cc(Nc2nc(-c3cnc4c(c3)N([C@H]3C[C@@](C)(N5CCCC6(CC6)C5)C3)C(=O)C4(C)C)cc3ncn(C(C)C)c23)c(F)c1F"
  property: "pIC50"
  numericResult: 10.22
- molecule: "Cc1c(C(=O)NC2(C(F)F)CC2)cc(Nc2nc(-c3cnc4c(c3)N([C@H]3C[C@@](C)(N5CCC6CC5CO6)C3)C(=O)C4(C)C)cc3ncn(C(C)C)c23)c(F)c1F (mixture of isomers)"
  property: "pIC50"
  numericResult: 10.15
- molecule: "CCNC(=O)c1ccc(F)c(Nc2nc(-c3ccc4c(c3)N([C@H]3C[C@@](C)(N5CCCCC5)C3)C(=O)C4(C)C)cc3ncn(C(C)C)c23)c1"
  property: "pIC50"
  numericResult: 10.05
- molecule: "CNC(=O)c1cc(Nc2nc(-c3ccc4c(c3)N([C@H]3C[C@@H](N5CCCCC5)C3)C(=O)C43CCN(C(=O)C(C)(C)O)CC3)cc3ncn(C(C)C)c23)ccc1C"
  property: "pIC50"
  numericResult: 10.00
- molecule: "CC(=O)N1CC2(C1)C(=O)N([C@H]1C[C@@H](N3CCCCC3)C1)c1cc(-c3cc4ncn(C(C)C)c4c(Nc4cc(C(=O)NC(C)C)c(C)cc4F)n3)ccc12"
  property: "pIC50"
  numericResult: 8.96
- molecule: "CC[C@H](C)n1cnc2cc(-c3ccc4c(c3)N([C@H]3C[C@@H](N5CCCCC5)C3)C(=O)C4(C)C)nc(Nc3ccc(C)c(C(=O)NC)c3)c21"
  property: "pIC50"
  numericResult: 10.00
- molecule: "CNC(=O)c1cc(Nc2nc(-c3ccc4c(c3)N([C@H]3C[C@@H](N5CCCCC5)C3)C(=O)C43CCN(S(=O)(=O)C4CC4)CC3)cc3ncn(C4CC4)c23)ccc1C"
  property: "pIC50"
  numericResult: 10.00
- molecule: "Cc1c(C(=O)NC2(C(F)F)CC2)cc(Nc2nc(-c3cnc4c(c3)N(C3CC(C)(N5CCC6C[C@H]5CO6)C3)C(=O)C4(C)C)cc3ncn(C(C)C)c23)c(F)c1F (stereo partly drawn) [Example 192]"
  property: "pIC50"
  numericResult: 10.00
- molecule: "CNC(=O)c1cc(Nc2nc(-c3ccc4c(c3)N([C@H]3C[C@@H](N5CCCC5)C3)C(=O)C4(C)C)cc3ncn(C(C)C)c23)ccc1C"
  property: "pIC50"
  numericResult: 10.00
- molecule: "Cc1ccc(Nc2nc(-c3ccc4c(c3)N([C@H]3C[C@@H](N5CCCCC5)C3)C(=O)C4(C)C)cc3ncn(C(C)C)c23)cc1C(=O)NC1(CF)CC1"
  property: "pIC50"
  numericResult: 10.05
